The reported numbers originate from patent US6455284B1.

property measured: Ki (µM)
Output spec: scalar in µM, unitless text.

Hello, I am looking for reported Ki with R. etli pyruvate carboxylase (Rhizobium etli, UniProt Q2K340) for Nc1ncnc2c1ncn2[C@@H]1O[C@H](COP(=O)(O)OP(=O)(O)O)[C@@H](O)[C@H]1O [ADP, adenosine diphosphate] . Could you help? 142

---

# measured on: R. etli pyruvate carboxylase (Rhizobium etli)
# assay text: Pyruvate carboxylase (PC) coupled enzyme assay (Payne and Morris) with E. coli cell extracts
# Type: biochemical
# conditions used: cell-free crude extract from MG1655 pTrc99A-pyc; FIG. 9
property measured: effect of nicotinamide nucleotides on pyruvate carboxylase activity

molecule smiles	value measured
NC(=O)c1ccc[n+]([C@@H]2O[C@H](COP(=O)([O-])OP(=O)(O)OC[C@H]3O[C@@H](n4cnc5c(N)ncnc54)[C@H](O)[C@@H]3O)[C@@H](O)[C@H]2O)c1	did not
NC(=O)C1=CN([C@@H]2O[C@H](COP(=O)(O)OP(=O)(O)OC[C@H]3O[C@@H](n4cnc5c(N)ncnc54)[C@H](OP(=O)(O)O)[C@@H]3O)[C@@H](O)[C@H]2O)C=CC1	did not
NC(=O)c1ccc[n+]([C@@H]2O[C@H](COP(=O)([O-])OP(=O)(O)OC[C@H]3O[C@@H](n4cnc5c(N)ncnc54)[C@H](OP(=O)(O)O)[C@@H]3O)[C@@H](O)[C@H]2O)c1	did not
